src = PubChem BioAssay (NCI)

tested on: T-47D breast; experiment: NCI-60 one-dose screen, 48 h; conditions: 10 µM
Compounds without any hit were thinned out: in the full panel of roughly 83,000, 20% have a hit. Activity calls are given as the source filed them. The calls were made as follows: active = growth percent below 10; inactive = the rest.
Outcomes: active, inactive

[
  {
    "SMILES_NOTATION": "CCn1cc(C(=O)O)c(=O)c2cc(F)c(N3CCNCC3)cc21",
    "GROUP_LABEL": "inactive"
  },
  {
    "SMILES_NOTATION": "O=C(CSc1nnc(-c2cccnc2SCc2ccccc2)o1)Nc1nc(Cl)cc(Cl)n1",
    "GROUP_LABEL": "inactive"
  },
  {
    "SMILES_NOTATION": "COc1cc(-c2ccc[nH]2)[nH]c1/C=C1\\N=C(C)C(C(=O)NC(C)C)=C1C",
    "GROUP_LABEL": "inactive"
  },
  {
    "SMILES_NOTATION": "C[C@@H](O)[C@H]1C(=O)N2C(C(=O)O)=C(SCCN=CN)C[C@H]12",
    "GROUP_LABEL": "active"
  },
  {
    "SMILES_NOTATION": "CCOC(=O)CC(S(=O)(=O)c1ccccc1)S(=O)(=O)c1ccccc1",
    "GROUP_LABEL": "inactive"
  },
  {
    "SMILES_NOTATION": "COc1ccc(-c2nn(-c3cccc(Cl)c3)cc2-c2c(C#N)c(=O)n3[nH]c(-c4ccc(C)cc4)nc3c2C#N)cc1",
    "GROUP_LABEL": "inactive"
  },
  {
    "SMILES_NOTATION": "COc1ccc2c(c1)C(=O)/C(=C/c1ccc([N+](=O)[O-])o1)O2",
    "GROUP_LABEL": "active"
  },
  {
    "SMILES_NOTATION": "Cc1ccc(NC(=S)NNC(=S)Nc2ccc(C)cc2)cc1",
    "GROUP_LABEL": "inactive"
  },
  {
    "SMILES_NOTATION": "O=C(CN1CCN(C(=O)c2ccccc2)CC1)Nc1ccccc1SCc1ccccc1",
    "GROUP_LABEL": "inactive"
  },
  {
    "SMILES_NOTATION": "CSc1nc(S(C)(=O)=O)nc2[nH]c(=O)[nH]c12",
    "GROUP_LABEL": "inactive"
  }
]
